# System Under Test: Human recombinant full-length MNK1 protein (Homo sapiens, UniProt Q9BUB5)
# Construct: Human recombinant full-length MNK1 protein
# Sequence (Q9BUB5 whole entry): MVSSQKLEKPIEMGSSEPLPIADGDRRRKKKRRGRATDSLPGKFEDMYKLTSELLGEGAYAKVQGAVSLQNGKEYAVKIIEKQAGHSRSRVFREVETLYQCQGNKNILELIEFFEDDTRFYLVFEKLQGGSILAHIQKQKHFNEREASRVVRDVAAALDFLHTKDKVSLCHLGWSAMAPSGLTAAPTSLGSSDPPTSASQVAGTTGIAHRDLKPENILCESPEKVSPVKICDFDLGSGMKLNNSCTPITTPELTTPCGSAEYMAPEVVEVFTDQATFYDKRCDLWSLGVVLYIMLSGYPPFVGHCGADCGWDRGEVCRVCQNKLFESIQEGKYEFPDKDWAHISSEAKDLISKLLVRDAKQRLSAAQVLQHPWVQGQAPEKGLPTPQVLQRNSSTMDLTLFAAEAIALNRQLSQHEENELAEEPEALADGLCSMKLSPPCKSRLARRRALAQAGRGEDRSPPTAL
# Protocol Text: MNK1 inhibitory activity assay (ADP-Glo in vitro kinase assay)
# Study Conditions: 10 concentration points
pIC50: −log10 of the molar value. Where a name gives a salt, the structure may show the parent alone.
Label satisfied for high-side pIC50 (at or above 7) and not satisfied for low-side pIC50 (below it).

COc1cc2c(cnn2C(=O)OC(C)(C)C)cc1Nc1ncnc(N)c1-c1ccccn1 [Compound 43]    not satisfied

Incoming: Entry COc1cc2[nH]ncc2cc1Nc1cc(Nc2ccncn2)ncn1 [Compound 22, formate] : is its pIC50 no less than 7?
Outgoing: satisfied

Incoming: Entry COCCOc1cncnc1Nc1ccc2c(c1OC)CNC2=O [Compound 75] : is its pIC50 no less than 7?
Outgoing: satisfied

Incoming: Entry CC(C)Oc1cc2[nH]ncc2cc1Nc1cc(NC(=O)C2CC2)ncn1 [Compound 7] : is its pIC50 no less than 7?
Outgoing: satisfied

Incoming: Entry COc1c(Nc2cc(Nc3ncccn3)ncn2)ccc2c1CNC2=O [Compound 69] : is its pIC50 no less than 7?
Outgoing: satisfied

Incoming: Entry COc1cc2[nH]ncc2cc1Nc1ncnc(N)c1C(=O)O [Compound 39, formate] : is its pIC50 no less than 7?
Outgoing: satisfied

Incoming: Entry COc1cc2[nH]ncc2cc1Nc1ncnc(N)c1OC [Compound 46] : is its pIC50 no less than 7?
Outgoing: satisfied

Incoming: Entry COc1cc2[nH]ncc2cc1Nc1ncncc1-c1nc2cccc(N3CCN[C@@H](C)C3)c2n1C [Compound 64] : is its pIC50 no less than 7?
Outgoing: not satisfied

Incoming: Entry COC(=O)n1ncc2cc(Nc3cc(NC(=O)C4CC4)ncn3)c(OC)cc21 [Compound 17] : is its pIC50 no less than 7?
Outgoing: satisfied

Incoming: Entry COc1cc2[nH]ncc2cc1Nc1ncncc1OCCO [Compound 54] : is its pIC50 no less than 7?
Outgoing: satisfied

Incoming: Entry COc1c(Nc2cc(Nc3cnccn3)ncn2)ccc2c1CNC2=O [Compound 84] : is its pIC50 no less than 7?
Outgoing: satisfied
